- study.system: protein-protein interaction between SOS1 and KRAS-G12D (Homo sapiens, UniProt Q07889)
- Construct: The purified GST-SOS1 catalytic domain (residues 564-1049) was first diluted in assay buffer; made in house; host or cells: E. coli BL21 (DE3) for SOS1; E. coli BL21 carrying a BirA plasmid for KRAS-G12D
- Sequence (Q07889 564-1049, stated change not applied): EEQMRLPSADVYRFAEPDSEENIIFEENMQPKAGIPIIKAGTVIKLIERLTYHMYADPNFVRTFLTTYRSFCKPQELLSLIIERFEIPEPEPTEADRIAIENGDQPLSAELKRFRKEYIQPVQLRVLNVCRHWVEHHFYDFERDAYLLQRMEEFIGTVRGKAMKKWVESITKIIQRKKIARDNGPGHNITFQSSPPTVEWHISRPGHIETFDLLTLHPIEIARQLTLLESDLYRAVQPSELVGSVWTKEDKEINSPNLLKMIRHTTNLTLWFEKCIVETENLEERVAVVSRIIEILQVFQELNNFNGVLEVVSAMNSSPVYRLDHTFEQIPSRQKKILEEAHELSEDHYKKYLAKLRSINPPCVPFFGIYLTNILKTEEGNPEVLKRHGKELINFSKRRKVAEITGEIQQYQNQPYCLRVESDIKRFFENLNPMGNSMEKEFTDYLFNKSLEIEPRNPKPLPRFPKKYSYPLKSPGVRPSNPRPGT
- test.method.notes: HTRF Based Protein-Protein Interaction Assay
- Assay type: binding
- run.conditions: HTRF; GST-SOS1 2.5 nM, KRAS-G12D 100 nM, GDP 10 uM; read-out: IC50 value, inhibition of SOS1/KRAS-G12D protein-protein interaction
pIC50: −log10 of the molar value.
pIC50 by entry:

pIC50 in this record for C#C[C@@H](Nc1nc(C)nc2cc(=O)n([C@H]3C[C@H](F)C3)cc12)c1cccc(C(F)(F)F)c1C : > 7.00

Documented pIC50 of [2H]C([2H])([2H])n1c(=O)c(C2(F)CCN(C(C)=O)CC2)cc2c(N[C@H](C#C)c3cccc(C(F)(F)F)c3C)nc(C)nc21 : 6.70 to 7.00

compound C#C[C@@H](Nc1nc(C)nc2cc(=O)n(C3(C)CCOC3)cc12)c1cccc(C(F)F)c1C (mixture of isomers) , pIC50 observed: > 7.00

Entry C#C[C@@H](Nc1ncnc2c1cc(C1(NC(C)=O)CCN(C(C)=O)CC1)c(=O)n2C)c1cccc(C(F)(F)F)c1C — recorded pIC50 = > 7.00

response.value for C#C[C@@H](Nc1nc(C)nc2c(C)c(=O)n(C3(C)CC3)cc12)c1cccc(C(F)(F)F)c1C (field: pIC50) = > 7.00

The reported value for C#C[C@@H](Nc1nc(C)nc2c1cc(C1(O)CCN(C(C)=O)CC1)c(=O)n2C)c1cccc(C(F)(F)F)c1C in terms of pIC50 is > 7.00

Recorded pIC50 (compound C#C[C@@H](Nc1nc(C)nc2cc(=O)n(C3(C)CCOC3)cc12)c1cccc(C(F)(F)F)c1C (some centres unmarked) ): > 7.00

Just so you know, measured pIC50 for C#C[C@@H](Nc1nc(C)nc2cc(=O)n(N[C@H]3CCOC3)cc12)c1cccc(C(F)F)c1C came out at 6.70 to 7.00

Kindly note the recorded pIC50 for C#C[C@@H](Nc1nc(C)nc2cc(=O)n(C3(CF)CC3)cc12)c1cccc(C(F)F)c1F , which is > 7.00

Memo: C#C[C@@H](Nc1ncnc2c1cc(C1(NC(C)=O)CCOCC1)c(=O)n2C)c1cccc(C(F)(F)F)c1C , reported pIC50: 6.70 to 7.00

pIC50 reading for C#C[C@@H](Nc1nc(C)nc2cc(=O)n(C3CCOCC3)cc12)c1cccc(C(F)(F)F)c1C : > 7.00

Consider C#C[C@@H](Nc1nc(C)nc2cc(=O)n(C3CC(F)(F)C3)cc12)c1cccc(C(F)F)c1F . Its measured pIC50 is > 7.00

Per the record, C#C[C@@H](Nc1nc(C)nc2cc(=O)n(C3(C(F)F)CC3)cc12)c1cccc(C(F)F)c1F has pIC50 of > 7.00

Field pIC50 (entry C#C[C@@H](Nc1ncnc2c1cc(C1(O)CCN(C(C)=O)CC1)c(=O)n2C)c1cccc(C(F)F)c1F ) reads > 7.00

Sourced from patent US20220324862A1
